- TEST_SYSTEM: NDRG2 (Homo sapiens)
- Sequence (Q9UN36 1-357 isoform Q9UN36-2): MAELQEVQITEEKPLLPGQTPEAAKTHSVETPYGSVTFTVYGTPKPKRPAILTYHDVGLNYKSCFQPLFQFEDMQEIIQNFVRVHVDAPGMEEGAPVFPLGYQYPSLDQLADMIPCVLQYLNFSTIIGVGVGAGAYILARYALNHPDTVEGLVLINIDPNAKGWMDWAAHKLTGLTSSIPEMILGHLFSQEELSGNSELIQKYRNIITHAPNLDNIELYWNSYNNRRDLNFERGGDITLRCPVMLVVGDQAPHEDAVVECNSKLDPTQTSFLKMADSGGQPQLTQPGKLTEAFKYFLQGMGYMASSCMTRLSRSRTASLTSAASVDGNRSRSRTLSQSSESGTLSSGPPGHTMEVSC
EXPERIMENTAL_ENDPOINT: pIC50
Note on units: pIC50 is unitless, being -log10 of a concentration expressed in mol/L.

Fill: pIC50 (NDRG2 (Homo sapiens)) for this compound [F-].[Na+] [sodium fluoride]
6.42
